target-or-test-system: the molecule itself
test-details: native gel or EMSA; 4–12% gradient native Tris-Glycine gel; samples kept and gel run at room temperature (20°C), 150 V, Coomassie blue stain
measurement-type: binding result

[[record]]
protein = "Drosophila melanogaster small heat shock protein DmHsp27, wild type (natural protein, UniProt P02518 1-213, looked up, DmHsp27 (Hsp27), Drosophila melanogaster, wild-type cDNA; also called DmHsp27WT; Drosophila melanogaster Hsp27; source: E. coli BL21 (DE3) pLysS, purified (Ni-NTA, SEC on Superose 6)) MSIIPLLHLARELDHDYRTDWGHLLEDDFGFGVHAHDLFHPRRLLLPNTLGLGRRRYSPYERSHGHHNQMSRRASGGPNALLPAVGKDGFQVCMDVSQFKPNELTVKVVDNTVVVEGKHEEREDGHGMIQRHFVRKYTLPKGFDPNEVVSTVSSDGVLTLKAPPPPSKEQAKSERIVQIQQTGPAHLSVKAPAPEAGDGKAENGSGEKMETSK"
measurement_type = "binding result"
result = "binds"

[[record]]
protein = "DmHsp27 with deletion of the first 86 amino acids of the N-terminal region (Del_Nter) (domain or fragment, Drosophila melanogaster, UniProt P02518 87-213, looked up, DmHsp27 (Hsp27), Drosophila melanogaster, without the first 86 amino acids (N-terminal region); The Del-NTR forward primer carries an ATG before the codon of residue 87, so an added Met probably precedes residue 87 (surmise); also called DmHsp27Del-NTR; source: E. coli BL21 (DE3) pLysS, purified (Ni-NTA, SEC on Superose 6)) KDGFQVCMDVSQFKPNELTVKVVDNTVVVEGKHEEREDGHGMIQRHFVRKYTLPKGFDPNEVVSTVSSDGVLTLKAPPPPSKEQAKSERIVQIQQTGPAHLSVKAPAPEAGDGKAENGSGEKMETSK"
measurement_type = "binding result"
result = "binds"

[[record]]
protein = "DmHsp27 G30R (natural protein, Drosophila melanogaster, UniProt P02518 1-213, looked up, DmHsp27 (Hsp27), Drosophila melanogaster, with G30R; source: E. coli BL21 (DE3) pLysS, purified (Ni-NTA, SEC on Superose 6)) MSIIPLLHLARELDHDYRTDWGHLLEDDFRFGVHAHDLFHPRRLLLPNTLGLGRRRYSPYERSHGHHNQMSRRASGGPNALLPAVGKDGFQVCMDVSQFKPNELTVKVVDNTVVVEGKHEEREDGHGMIQRHFVRKYTLPKGFDPNEVVSTVSSDGVLTLKAPPPPSKEQAKSERIVQIQQTGPAHLSVKAPAPEAGDGKAENGSGEKMETSK"
measurement_type = "binding result"
result = "binds"


Origin of measurements: paper PMC5433770
